Would you kindly list ΔTm for each of these compounds?
Subject of test: Fibroblast growth factor receptor 3 (Homo sapiens) (UniProt P22607)
Sequence (P22607 23-806 limits assumed): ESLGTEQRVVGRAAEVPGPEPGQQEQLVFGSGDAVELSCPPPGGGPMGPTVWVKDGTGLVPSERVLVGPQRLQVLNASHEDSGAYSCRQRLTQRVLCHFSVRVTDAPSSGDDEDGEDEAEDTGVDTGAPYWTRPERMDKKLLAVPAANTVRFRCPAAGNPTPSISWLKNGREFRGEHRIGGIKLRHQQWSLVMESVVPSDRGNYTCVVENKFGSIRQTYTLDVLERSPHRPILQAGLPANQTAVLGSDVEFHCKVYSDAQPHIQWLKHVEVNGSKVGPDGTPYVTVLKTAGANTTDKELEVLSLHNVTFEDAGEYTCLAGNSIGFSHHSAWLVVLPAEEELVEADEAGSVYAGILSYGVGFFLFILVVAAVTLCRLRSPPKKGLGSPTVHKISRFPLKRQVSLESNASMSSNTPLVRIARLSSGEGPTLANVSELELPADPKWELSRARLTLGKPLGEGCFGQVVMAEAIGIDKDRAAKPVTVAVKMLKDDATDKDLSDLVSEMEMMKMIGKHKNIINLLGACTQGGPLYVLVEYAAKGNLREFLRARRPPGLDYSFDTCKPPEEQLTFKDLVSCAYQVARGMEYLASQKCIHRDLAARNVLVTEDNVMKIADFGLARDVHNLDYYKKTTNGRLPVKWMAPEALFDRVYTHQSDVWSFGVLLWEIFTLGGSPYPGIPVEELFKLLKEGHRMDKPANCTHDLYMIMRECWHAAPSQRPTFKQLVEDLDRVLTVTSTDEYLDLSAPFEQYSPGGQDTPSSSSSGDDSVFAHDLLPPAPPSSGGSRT
Measurement context: Compound concentration 20.0 uM, Protein concentration 2.0 uM, Result type QC Liability
Description: Thermal Shift Assay. Domain: start/stop: P449-E759
Report as a plain number; the unit °C is understood.

Would you mind telling me what ΔTm value was observed for Cn1cnc(Cn2ccc3ccc(CNCc4[nH]c5ccccc5c4[C@H]4NC(=O)c5ccc(O)cc54)cc32)c1 ?
0.57

Would you mind telling me what ΔTm value was observed for CC(C)(C)NC(=O)c1cncn1C1CCN(c2ccc(-c3nnc(C(F)(F)F)o3)cn2)CC1 ?
0.91

Would you mind telling me what ΔTm value was observed for C[S+]([O-])c1ccc(-c2nc(-c3cccc(I)c3)c(-c3ccncc3)[nH]2)cc1 (centres undefined) ?
-1.51

Would you mind telling me what ΔTm value was observed for CCO[C@@H](Cc1ccc(OCCc2ccc(OS(C)(=O)=O)cc2)cc1)C(=O)O ?
0.52

Would you mind telling me what ΔTm value was observed for COc1cc(Oc2nc(-c3ccc(NC(=O)C4CCOC4)cc3)nn3c(C)nc(C)c23)cc(OC)c1OC (centres undefined) ?
1.34

Would you mind telling me what ΔTm value was observed for CC(C)(O)[C@H]1CC[C@H](Nc2ccc3ncc(-c4cccc(C(F)(F)F)c4)n3n2)CC1 ?
0.8

Would you mind telling me what ΔTm value was observed for CNc1ncc2cc(-c3ccc(-c4cccc(C)n4)cc3Cl)c(=O)n(C[C@H]3OC[C@H](N)CO3)c2n1 ?
1.85

Would you mind telling me what ΔTm value was observed for N#Cc1ccc(C#CC[C@@H](C#N)NC(=O)[C@@H]2CCCCN2)cc1F ?
0.43

Would you mind telling me what ΔTm value was observed for CNc1nc(-c2cc(C(=O)N3CCN(Cc4ccc(Cl)cc4)CC3)c(Cl)cn2)cs1 ?
0.37

Would you mind telling me what ΔTm value was observed for C[C@@H]1CC(=O)N(C2CC2)N=C1c1ccc(NC(=O)N2Cc3ccncc3C2)cc1 ?
0.58

Would you mind telling me what ΔTm value was observed for COc1cc2c(cc1CC=C(C)C)C(=O)C[C@@H](c1ccc(O)cc1)O2 ?
2.85

Would you mind telling me what ΔTm value was observed for CC#CC(=O)N1CCN(c2nc(-c3ccc(Oc4ccccc4)cc3)c(C(N)=O)s2)CC1 ?
-1.02

Would you mind telling me what ΔTm value was observed for CC1CNCCc2c1nc1ccnn1c2N1CC(C(=O)N2CCC(C)(C)C2)C1 (centres undefined) ?
0.56

Would you mind telling me what ΔTm value was observed for CCn1c(-c2nonc2N)nc2cncc(C(=O)N3CC[C@H](N)C3)c21 ?
0.35

Would you mind telling me what ΔTm value was observed for Cc1nnc2n1-c1sc3c(c1C(c1ccccc1Cl)=NC2)C[C@@H](C(=O)N1CCOCC1)C3 ?
0.58

Would you mind telling me what ΔTm value was observed for CC(=O)c1c(C)c2cnc(Nc3ccc(N4CCN(CCCCNC(=O)COc5cccc6c5C(=O)N(C5CCC(=O)NC5=O)C6=O)CC4)cn3)nc2n(C2CCCC2)c1=O (centres undefined) ?
0.48

Would you mind telling me what ΔTm value was observed for COCCCS(=O)(=O)c1cc(C)c(-c2ccc(F)c3c2CC[C@H]3Oc2ccc3c(c2)OC[C@H]3CC(=O)O)c(C)c1 ?
0.81

Would you mind telling me what ΔTm value was observed for O=C(Nc1ccnc(NC(=O)C2CC2)c1)c1c(Cl)cccc1Cl ?
3.21

Would you mind telling me what ΔTm value was observed for O=C1Nc2nc(-c3c(O)cccc3OCC3CC3)cc([C@@H]3CCCNC3)c2CO1 ?
1.04

Would you mind telling me what ΔTm value was observed for CCN1C(=O)N(c2c(F)c(OC)cc(OC)c2F)Cc2cnc3[nH]c(CN4CCOCC4)cc3c21 ?
11.8

Would you mind telling me what ΔTm value was observed for COc1cc2nc(C)nc(NC3(c4ccccc4)CC3)c2cc1OC ?
0.4

Would you mind telling me what ΔTm value was observed for CN[C@@H]1CC[C@@H](c2ccc(Cl)c(Cl)c2)c2ccccc21 ?
0.61

Would you mind telling me what ΔTm value was observed for CC[C@H](NC(=O)[C@H](C)NC)C(=O)N1C[C@@H](O)C[C@H]1Cc1c(-c2[nH]c3cc(F)ccc3c2C[C@@H]2C[C@H](O)CN2C(=O)[C@H](CC)NC(=O)[C@H](C)NC)[nH]c2cc(F)ccc12 ?
0.75

Would you mind telling me what ΔTm value was observed for Cc1c(N2CCNCC2)nc2ccc(Br)cc2c1C(=O)NC[C@H](CCC(=O)O)c1ccccc1Cl ?
0.57

Would you mind telling me what ΔTm value was observed for Cn1nc(C(=O)NCc2ccc(C(=O)O)cc2)cc1-c1ccc2[nH]ccc2c1 ?
0.9

Would you mind telling me what ΔTm value was observed for CO[C@H](C)CN1CC[C@@]2(C)c3ccc(O)cc3C[C@@H]1C2(C)C ?
0.41

Would you mind telling me what ΔTm value was observed for Cc1cc(NC(=O)c2cccc(NC(=O)/C=C/CN(C)C)c2)ccc1Nc1nccc(-c2cccnc2)n1 ?
1.04

Would you mind telling me what ΔTm value was observed for COc1cc(-c2cncc(-c3cnn(C4CCNCC4)c3)c2)cc(OC)c1OC ?
0.93

Would you mind telling me what ΔTm value was observed for CCS(=O)(=O)c1cc2cc(C[C@](O)(CC(C)(C)c3ccc(F)cc3C(N)=O)C(F)(F)F)[nH]c2cn1 ?
0.43
